Biological target: UniProt:Q9GZT9
Test: Prolyl hydroxylase 2 inhibition, fluorescence polarization method
Format: biochemical
Conditions: fluorescence polarization, read 1 h after adding the drugs; read-out: Prolyl hydroxylase 2 (IC50 nM)
Under this convention, Y denotes IC50 strictly below 400 nM and N denotes IC50 at or above 400 nM.

Worked examples follow.
compound="Cc1ccc(OCC#Cc2cnc(C(=O)NCC(=O)O)c(O)c2)cc1 [Example 34]" group=Y
compound="CCc1ccc(OCC#Cc2cnc(C(=O)NCC(=O)O)c(O)c2)cc1 [Example 36]" group=Y
compound="O=C(O)CNC(=O)c1ncc(C#CCOc2ccc(-c3ccccc3)cc2)cc1O [Example 57]" group=N

(Q) Consider Cc1ccccc1OCC#Cc1cnc(C(=O)NCC(=O)O)c(O)c1 [Example 35] . Does its IC50 lie strictly below 400 nM?
(A) Y

(Q) Consider O=C(O)CNC(=O)c1ncc(C#Cc2ccccc2)cc1O [Example 5] . Does its IC50 lie strictly below 400 nM?
(A) N

(Q) Consider O=C(O)CNC(=O)c1ncc(C#CCOc2ccc(F)cc2)cc1O [Example 47] . Does its IC50 lie strictly below 400 nM?
(A) Y

(Q) Consider O=C(O)CNC(=O)c1ncc(C#Cc2ccc(-c3ccccc3)cc2)cc1O [Example 18] . Does its IC50 lie strictly below 400 nM?
(A) N

(Q) Consider O=C(O)CNC(=O)c1ncc(C#CCOc2ccc(C(F)(F)F)cc2)cc1O [Example 42] . Does its IC50 lie strictly below 400 nM?
(A) N

(Q) Consider O=C(O)CNC(=O)c1ncc(C#CCOc2ccccc2)cc1O [Example 33] . Does its IC50 lie strictly below 400 nM?
(A) Y

* * *

Molecular target: Prolyl hydroxylase 2 (Homo sapiens (Human))
Sequence (Q9GZT9 whole entry): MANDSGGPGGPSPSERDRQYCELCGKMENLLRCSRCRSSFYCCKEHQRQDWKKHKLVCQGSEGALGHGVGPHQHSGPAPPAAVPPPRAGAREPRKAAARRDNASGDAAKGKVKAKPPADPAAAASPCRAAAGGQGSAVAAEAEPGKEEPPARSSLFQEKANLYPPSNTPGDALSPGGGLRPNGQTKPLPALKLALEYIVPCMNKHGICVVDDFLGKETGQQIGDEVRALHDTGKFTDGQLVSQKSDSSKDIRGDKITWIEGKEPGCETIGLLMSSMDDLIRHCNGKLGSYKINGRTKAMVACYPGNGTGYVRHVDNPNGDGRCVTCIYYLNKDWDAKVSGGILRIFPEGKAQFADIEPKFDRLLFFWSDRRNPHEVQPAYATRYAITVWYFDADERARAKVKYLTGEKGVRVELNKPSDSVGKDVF
Experiment: Prolyl hydroxylase 2 inhibition, fluorescence polarization method
Type: biochemical
Settings: fluorescence polarization, read 1 h after adding the drugs; read-out: Prolyl hydroxylase 2 (IC50 nM)
endpointLabel: IC50 (nM)
Numbers only, in nM.

I need IC50 for every entry listed below, if you could help.
1. O=C(O)CNC(=O)c1ncc(C#CCOc2ccc(Cl)cc2)cc1O [Example 44]
2. CC(C)(C)C#Cc1cnc(C(=O)NCC(=O)O)c(O)c1 [Example 3]
3. O=C(O)CNC(=O)c1ncc(C#CCNc2ccccc2)cc1O [Example 64]
4. O=C(O)CNC(=O)c1ncc(C#CC2CC2)cc1O [Example 4]
5. O=C(O)CNC(=O)c1ncc(C#CCOc2ccccc2Cl)cc1O [Example 45]
6. O=C(O)CNC(=O)c1ncc(C#CCOc2cccc(Cl)c2)cc1O [Example 46]

(A)
13.7
1220
326
835
175
102
